B1: Twister Ribozyme (parent)
chain: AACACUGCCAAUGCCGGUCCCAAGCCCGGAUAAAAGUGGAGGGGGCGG

variants of: B1; experiment: self-cleavage, relative activity (ratio to wild type); higher = more cleavage; co-transcriptional

# mutation.spec, self-cleavage
rows = [
    ("C5A U18G", 0.0654),
    ("A33C G44U", 0.97),
    ("C26G C27G", 0.106),
    ("C15U C27A", 0.105),
    ("G13U G36U", 0.107),
    ("C5G G7A", 0.111),
    ("G42A G43U", 0.134),
    ("U37G G41A", 0.209),
    ("A1C C27U", 0.138),
    ("C26U A30C", 0.0974),
    ("A4U C21A", 0.0381),
    ("A22G A35U", 0.313),
    ("A11G C15G", 0.0492),
    ("C8G C15G", 0.062),
    ("A10C U18A", 0.455),
    ("A2G C8A", 0.153),
    ("G28A U31C", 0.835),
    ("G16U C19A", 0.284),
    ("C15A G44C", 0.57),
    ("C14U G16C", 0.36),
    ("C26U G28U", 0.142),
    ("A2G G39C", 0.0951),
    ("C3A A40C", 0.0582),
    ("A1C U31C", 0.141),
    ("A32C G44A", 0.881),
    ("G38C G41U", 0.304),
    ("A35G G44C", 0.821),
    ("C9U A30U", 0.579),
    ("C21U U37G", 0.0506),
    ("A30C A35U", 0.912),
    ("C9A G44U", 0.544),
]

Where these numbers come from: the RNAGym collection of RNA variant scans (doi:10.7554/elife.80360)
